Test system: beagles
ASSAY NAME: 13-week repeated oral toxicity: hematological test
Assay type: in vivo, beagle
RUN PARAMETERS: G4 1,000 mg/kg group, male (M10-M12, Mean), before administration (day 0); mean
Method: Fasting was conducted the day before administration (blood test date, pre), the 4th week (day 29) after administration, the 8th week (day 57) after administration, and the 13th week (day 92) after administration, and when the remaining feed was present in the feed container 3 hours after feeding on the day of fasting, it was removed. […]
ASSAY READOUT: MCH (pg)
Numbers only; they are read as pg.

Request: I would be grateful if you could share the reported MCH for CN1C(=O)NC(=O)C1O (stereo not shown) [KBP-001] .
Result: 18.2
